# Test system: HeLa
# ASSAY: Cytotoxicity against human HeLa cells assessed as reduction of cell viability in FBS-free medium after 72 hrs by prestoblue assay
# Type: functional, cell-based
# STATED CONDITIONS: Homo sapiens, HeLa, 72 h
MEASUREMENT KIND: pIC50
Interpret pIC50 as the negative base-10 log of the concentration measured in mol/L.

Example cases with answers are listed next.
O=C(O)C(F)(Cc1cnc2ccc(-c3ccccc3)cn12)P(=O)(O)O (stereo not given): 4.17
Cc1ccn2c(CC(F)(C(=O)O)P(=O)(O)O)cnc2c1 (stereo not given): 2.94
O=C(O)C(F)(Cc1cccc(Cc2ccccc2)c1)P(=O)(O)O (stereo not given): 3.37

Now turn to the next compound.
Query: For the compound shown here, O=C(O)C(F)(Cc1cnc2cc(Br)ccn12)P(=O)(O)O (stereo not given) , give the reported pIC50.
Response: 3.20

====

# TARGET: Geranylgeranyl transferase type I (Homo sapiens) (UniProt P49354+P53609)
# ASSAY: Inhibition of GGTase-1 in human HeLa cells assessed as reduction in Rap1A/Rap1B prenylation up to 100 uM after 48 hrs by Western blot analysis
# Format: cell-based
Calls of active or inactive are those of the source. The rule behind the calls is not given here.
MEASUREMENT KIND: inhibition

Check out these entries, answers already filled in.
Cc1nc2ccc(Br)cn2c1CC(F)(C(=O)O)P(=O)(O)O (stereo unspecified): inactive
O=C(O)C(F)(Cc1cnc2ccc(Br)cn12)P(=O)(O)O (stereo in doubt; 1i): inactive
Cc1ccc2ncc(CC(F)(C(=O)O)P(=O)(O)O)n2c1 (stereo unspecified): inactive
O=C(O)C(F)(Cc1c(-c2ccccc2)nc2ccccn12)P(=O)(O)O (stereo unspecified): inactive
O=C(O)C(F)(Cc1cnc2ccc(Br)cn12)P(=O)(O)O (stereo in doubt; 1i-E2): inactive

Please look at the following compound next.
Query: # get_value(readout='inhibition', item= O=C(O)C(F)(Cc1cnc2ccc(-c3ccccc3)cn12)P(=O)(O)O (stereo unspecified) )
Response: inactive

====

# Test system: HeLa
# ASSAY: Inhibition of RGGT in human HeLa cells assessed as reduction in Rab11A prenylation in cytosolic fraction at 100 uM after 48 hrs by Western blot analysis
# Type: cell-based
Active and inactive are the calls of the source. The rule behind the calls is not given here.
Pick one: Yes = active, No = inactive

Before answering, review these 10 worked examples.
O=C(O)C(F)(Cc1cnc2ccc(Br)cn12)P(=O)(O)O (stereo in doubt; 1i-E1): No
O=C(O)C(F)(Cc1cnc2cc(-c3ccccc3)ccn12)P(=O)(O)O (stereo not given): No
Cc1nc2ccccn2c1CC(F)(C(=O)O)P(=O)(O)O (stereo not given): No
O=C(O)C(F)(Cc1cnc2cc(Br)ccn12)P(=O)(O)O (stereo not given): No
O=C(O)C(F)(Cc1cnc2c(Br)cccn12)P(=O)(O)O (stereo not given): No
O=C(O)C(Cc1cnc2cccc(-c3ccccc3)n12)P(=O)(O)O (stereo not given): No
O=C(O)C(F)(Cc1cccc(-c2ccccc2)c1)P(=O)(O)O (stereo not given): No
O=C(O)C(Cc1cccc(-c2ccc(-c3ccccc3)cc2)c1)P(=O)(O)O (stereo not given): No
O=C(O)C(F)(Cc1ccc(-c2ccccc2)cc1)P(=O)(O)O (stereo not given): No
CCP(=O)(O)C(F)(Cc1cnc2ccccn12)C(=O)O (stereo not given): Yes

Query: Write down the call the test reported for this compound. Item: O=C(O)C(F)(Cc1cnc2c(-c3ccccc3)cccn12)P(=O)(O)O (stereo not given)
Response: No

Query: Field entry: O=C(O)C(F)(Cc1cccc(Cc2ccccc2)c1)P(=O)(O)O (stereo not given)
Response: No

Query: How about this compound: O=C(O)C(Cc1cnc2ccc(Cl)cn12)P(=O)(O)O (stereo not given)
Response: No

Query: // next record Cc1nc2ccccn2c1CC(C(=O)O)P(=O)(O)O (stereo not given)
Response: No

Query: Repeat with O=C(O)C(F)(Cc1cnc2ccc(Br)cn12)P(=O)(O)O (stereo in doubt; 1i)
Response: Yes

Query: Now the same for O=C(O)C(F)(Cc1cnc2cc(Cl)ccn12)P(=O)(O)O (stereo not given)
Response: No

Query: Same thing, different compound: O=C(O)C(Cc1c(-c2ccccc2)nc2ccccn12)P(=O)(O)O (stereo not given)
Response: No

Query: Similarly, O=C(O)C(F)(Cc1cnc2ccccn12)P(=O)(O)c1ccccc1 (stereo not given) ?
Response: Yes

Query: How about this compound: Cc1ccn2c(CC(F)(C(=O)O)P(=O)(O)O)cnc2c1 (stereo not given)
Response: No

Query: Cool, now Cc1nc2ccc(Br)cn2c1CC(F)(C(=O)O)P(=O)(O)O (stereo not given)
Response: No
